Taken from patent US7507727B2.

- TESTED SYSTEM: c-Myc template DNA (c-myc quadruplex)
- EXPERIMENT: Quadruplex binding / stop assay (Taq polymerase arrest, capillary electrophoresis)
- RECORDED CONDITIONS: read-out: S DATA; Table 1D, stop assay data
IC50 values for the molecules below.
ASSAY ENDPOINT: IC50

• CC(CNC(=O)c1cn2c3c(c(N4CCC(N)C4)c(F)cc3c1=O)Oc1cc3ccccc3cc1-2)c1ccccc1 (stereo not drawn) [compound 1695] = > 15 µM
• CN1CCCC1CCNC(=O)c1cn2c3c(c(SCCc4cnccn4)c(F)cc3c1=O)Oc1ccc(Cl)cc1-2 (stereo not drawn) [compound 1787] = > 15 µM
• CC(C)N1CCN(c2c(F)cc3c(=O)c(C(=O)N4CCC(N)C4)cn4c3c2Oc2ccccc2-4)CC1 (stereo not drawn) [compound 1627] = > 15 µM
